- testSystem: mouse TAAR1 (Mus musculus)
- Sequence (Q923Y8 whole entry): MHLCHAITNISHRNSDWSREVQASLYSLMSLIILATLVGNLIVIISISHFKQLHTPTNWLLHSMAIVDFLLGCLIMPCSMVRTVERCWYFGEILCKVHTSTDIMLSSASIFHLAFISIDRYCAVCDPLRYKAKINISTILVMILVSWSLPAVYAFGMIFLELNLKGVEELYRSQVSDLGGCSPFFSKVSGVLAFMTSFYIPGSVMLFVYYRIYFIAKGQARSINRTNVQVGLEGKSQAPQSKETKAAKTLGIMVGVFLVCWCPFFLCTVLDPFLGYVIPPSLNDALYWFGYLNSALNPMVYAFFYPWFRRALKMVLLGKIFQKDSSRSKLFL
- testName: Radioligand binding, [3H]RO5166017 displacement
pKi: −log10 of the molar value.
We begin with a simple list: items and their reported pKi.

compound	valueOperator	pKi
CNC(C)Cc1ccc2c(c1)OCO2 (stereo not shown) [MDMA, 3,4-Methylenedioxymethamphetmine, reference compound]	=	5.51
CNC(C)C(=O)c1ccc2c(c1)OCO2 (stereo not shown) [Methylone, 3,4-methylenedioxymethcathinone, reference compound]	<	5.33
CC(N)Cc1ccc(O)c(O)c1 (stereo not shown) [HHA, 3,4-Dihydroxyamphetamine]	=	5.85
CC(N)Cc1ccc2c(c1)OCO2 (stereo not shown) [MDA, 3,4-methylenedioxyamphetamine, reference compound]	=	6.74

----------
- testSystem: α2 adrenergic receptor (α2A) (Homo sapiens, UniProt P08913)
- Sequence (P08913 whole entry): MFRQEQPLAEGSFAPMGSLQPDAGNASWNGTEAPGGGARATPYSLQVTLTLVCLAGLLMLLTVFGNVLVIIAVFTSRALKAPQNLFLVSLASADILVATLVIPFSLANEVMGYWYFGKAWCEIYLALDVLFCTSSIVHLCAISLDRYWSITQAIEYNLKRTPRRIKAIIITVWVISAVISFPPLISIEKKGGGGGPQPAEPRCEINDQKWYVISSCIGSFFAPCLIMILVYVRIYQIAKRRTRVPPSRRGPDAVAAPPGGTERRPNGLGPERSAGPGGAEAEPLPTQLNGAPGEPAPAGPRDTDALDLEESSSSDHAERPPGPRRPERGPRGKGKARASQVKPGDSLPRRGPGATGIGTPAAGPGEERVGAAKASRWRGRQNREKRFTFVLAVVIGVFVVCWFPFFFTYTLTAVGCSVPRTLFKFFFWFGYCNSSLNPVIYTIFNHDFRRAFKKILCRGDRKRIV
- testName: Radioligand binding, [3H]rauwolscine displacement
- conditionParameters: read-out: α2A Ki; mean±SD, n=3

molecule	Ki
CNC(C)C(=O)c1ccc(O)c(O)c1 (stereo not drawn) [HHMC, 3,4-Dihydroxymethcathinone]	> 4.7 µM
COc1cc(CC(C)N)ccc1O (stereo not drawn) [HMA, 4-hydroxy-3-methyoxyamphetamine]	> 4.7 µM
CCCC(C(=O)c1ccc2c(c1)OCO2)N1CCCC1 (stereo not drawn) [MDPV, 3,4-methylenedioxypyrovalerone, reference compound]	> 5 µM
CNC(C)Cc1ccc(O)c(O)c1 (stereo not drawn) [HHMA, 3,4-dihydroxymethamphetamine]	1.3 µM
CNC(C)C(=O)c1ccc(O)c(OC)c1 (stereo not drawn) [HMMC, 4-hydroxy-3-methyoxymethcathinone]	> 4.7 µM
CCCC(C(=O)c1ccc(O)c(O)c1)N1CCCC1 (stereo not drawn) [HHPV, 3,4-dihydroxypyrovalerone]	> 4.7 µM
CC(N)C(=O)c1ccc2c(c1)OCO2 (stereo not drawn) [MDC, 3,4-methylenedioxycathinone]	> 4.7 µM
CCCC(C(=O)c1ccc(O)c(OC)c1)N1CCCC1 (stereo not drawn) [HMPV, 4-hydroxy-3-methyoxypyrovalerone]	> 4.7 µM
CNC(C)Cc1ccc(O)c(OC)c1 (stereo not drawn) [HMMA, 4-hydroxy-3-methoxymethamphetamine]	> 4.7 µM

----------
We begin with a simple list: items and their reported DAT/SERT ratio.
- testSystem: DAT (Homo sapiens)
- Sequence (Q01959 whole entry): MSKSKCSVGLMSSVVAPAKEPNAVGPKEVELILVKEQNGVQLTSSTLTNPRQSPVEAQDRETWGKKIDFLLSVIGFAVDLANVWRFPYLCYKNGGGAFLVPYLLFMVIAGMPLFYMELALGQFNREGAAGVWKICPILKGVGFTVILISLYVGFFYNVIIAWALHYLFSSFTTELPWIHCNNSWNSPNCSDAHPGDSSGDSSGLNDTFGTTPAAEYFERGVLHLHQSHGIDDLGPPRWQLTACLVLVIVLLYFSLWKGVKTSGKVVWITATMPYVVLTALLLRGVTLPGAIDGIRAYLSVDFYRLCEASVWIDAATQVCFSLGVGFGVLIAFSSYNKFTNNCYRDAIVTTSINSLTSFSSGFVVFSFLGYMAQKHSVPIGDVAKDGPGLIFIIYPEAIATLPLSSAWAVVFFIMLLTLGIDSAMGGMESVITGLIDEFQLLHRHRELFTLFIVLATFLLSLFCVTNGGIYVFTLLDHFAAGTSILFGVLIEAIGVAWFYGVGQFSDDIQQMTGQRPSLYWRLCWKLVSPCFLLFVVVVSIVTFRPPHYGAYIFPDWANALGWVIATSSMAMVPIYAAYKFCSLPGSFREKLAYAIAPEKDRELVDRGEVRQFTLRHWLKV
- testName: [3H]dopamine uptake inhibition in HEK 293 cells overexpressing human DAT
- Type: cell-based
- conditionParameters: 1/DAT IC50 : 1/SERT IC50; mean and 95% confidence interval

molecule	DAT/SERT ratio
COc1cc(CC(C)N)ccc1O (centres unmarked) [HMA, 4-hydroxy-3-methyoxyamphetamine]	270 (96–830)
CC(N)C(=O)c1ccc2c(c1)OCO2 (centres unmarked)	0.38 (0.24–0.59)
CNC(C)Cc1ccc(O)c(OC)c1 (centres unmarked) [HMMA, 4-hydroxy-3-methoxymethamphetamine]	3.6 (1.4–8.9)
CCCC(C(=O)c1ccc2c(c1)OCO2)N1CCCC1 (centres unmarked) [MDPV, 3,4-methylenedioxypyrovalerone, reference compound]	226 (143–350)
CNC(C)C(=O)c1ccc2c(c1)OCO2 (centres unmarked) [Methylone, 3,4-methylenedioxymethcathinone, reference compound]	2.7 (1.9–3.8)

----------
We begin with a simple list: items and their reported pKi.
- testSystem: SERT (Homo sapiens)
- Sequence (P31645 whole entry): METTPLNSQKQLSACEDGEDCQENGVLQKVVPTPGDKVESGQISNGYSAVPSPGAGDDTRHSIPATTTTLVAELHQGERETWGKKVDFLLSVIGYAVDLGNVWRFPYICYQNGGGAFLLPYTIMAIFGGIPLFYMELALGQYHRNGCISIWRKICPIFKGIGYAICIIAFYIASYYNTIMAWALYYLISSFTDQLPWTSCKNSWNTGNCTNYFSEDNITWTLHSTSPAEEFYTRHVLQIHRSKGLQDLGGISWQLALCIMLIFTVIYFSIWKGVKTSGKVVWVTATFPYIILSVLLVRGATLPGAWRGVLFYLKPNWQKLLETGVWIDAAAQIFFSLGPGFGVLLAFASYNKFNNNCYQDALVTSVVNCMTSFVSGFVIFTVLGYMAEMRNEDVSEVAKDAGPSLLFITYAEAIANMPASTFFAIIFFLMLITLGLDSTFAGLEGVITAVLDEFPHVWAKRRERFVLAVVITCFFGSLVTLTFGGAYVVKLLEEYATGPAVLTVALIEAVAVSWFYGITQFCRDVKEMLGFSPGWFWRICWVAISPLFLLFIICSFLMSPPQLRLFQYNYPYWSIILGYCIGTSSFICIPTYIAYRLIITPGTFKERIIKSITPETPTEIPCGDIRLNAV
- testName: Radioligand binding, [3H]citalopram displacement
pKi: −log10 of the molar value.
metric: pKi

molecule	metric	val
CC(N)Cc1ccc(O)c(O)c1 (stereo not shown) [HHA, 3,4-Dihydroxyamphetamine]	pKi	< 5.13
CNC(C)C(=O)c1ccc2c(c1)OCO2 (stereo not shown) [Methylone, 3,4-methylenedioxymethcathinone, reference compound]	pKi	< 5.12
CC(N)Cc1ccc2c(c1)OCO2 (stereo not shown) [MDA, 3,4-methylenedioxyamphetamine, reference compound]	pKi	< 5.13
CNC(C)Cc1ccc2c(c1)OCO2 (stereo not shown) [MDMA, 3,4-Methylenedioxymethamphetmine, reference compound]	pKi	< 5.12
